particulars: parabacteroides johnsonii, 12 h, 2 µM
Description: The drug is tested on Parabacteroides johnsonii strain: DSM18315 for biotransformation. The drug concentrations were measured before and after a 12-h incubation by liquid-chromatography-coupled mass spectrometry (LC–MS)
measure: Bacterial Biotransformation

# example entries with known answers
c1ccc([C@H]2CN3CCSC3=N2)cc1 [LEVAMISOLE]: Compound metabolized
COc1ccc2[nH]c([S+]([O-])Cc3ncc(C)c(OC)c3C)nc2n1 (stereo unspecified) [TENATOPRAZOLE]: Compound metabolized
CCN(CC)CCNC(=O)c1cc(S(C)(=O)=O)ccc1OC [TIAPRIDE]: Compound NOT metabolized
CC(C)(C)NCC(O)COc1cccc2c1CC(O)C(O)C2 (stereo unspecified) [NADOLOL]: Compound NOT metabolized
CN(C)C(=O)Oc1cc(OC(=O)N(C)C)cc(C(O)CNC(C)(C)C)c1 (stereo unspecified) [BAMBUTEROL]: Compound NOT metabolized
CC(C)OC(=O)C(C)(C)Oc1ccc(C(=O)c2ccc(Cl)cc2)cc1 [FENOFIBRATE]: Compound metabolized
Clc1cccc(Cl)c1N=C1NCCN1 [CLONIDINE]: Compound NOT metabolized
CCOc1ccc2nc(S(N)(=O)=O)sc2c1 [ETHOXZOLAMIDE]: Compound metabolized

Looking for the measured Bacterial Biotransformation of O=c1n(CCCN2CCN(c3cccc(Cl)c3)CC2)nc2ccccn12 [TRAZODONE] , can you help?
Compound NOT metabolized

What do you get for CC(C)C[C@H]1C(=O)N2CCC[C@H]2[C@]2(O)O[C@](NC(=O)[C@@H]3C=C4c5cccc6[nH]c(Br)c(c56)C[C@H]4N(C)C3)(C(C)C)C(=O)N12.CS(=O)(=O)O [BROMOCRIPTINE MESYLATE] ?
Compound metabolized

---

assay procedure: The drug is tested on Ruminococcus torques strain: ATCC27756 for biotransformation. The drug concentrations were measured before and after a 12-h incubation by liquid-chromatography-coupled mass spectrometry (LC–MS)
Format: ADME
Set-up: dose 2 uM, timepoint 0 vs 12 hours
particulars: 2 µM
measure: Bacterial Biotransformation

CC(Oc1c(Cl)cccc1Cl)C1=NCCN1 (centres undefined) [LOFEXIDINE]: Compound metabolized
CCOc1ccc2nc(S(N)(=O)=O)sc2c1 [ETHOXZOLAMIDE]: Compound metabolized
Br.CN(C)CCCC1(c2ccc(F)cc2)OCc2cc(C#N)ccc21 (centres undefined) [CITALOPRAM HYDROBROMIDE]: Compound NOT metabolized
CN(C)CCC=C1c2ccccc2C=Cc2ccccc21 [CYCLOBENZAPRINE]: Compound NOT metabolized

---

assay procedure: The drug is tested on Ruminococcus gnavus strain: ATCC29149 for biotransformation. The drug concentrations were measured before and after a 12-h incubation by liquid-chromatography-coupled mass spectrometry (LC–MS)
particulars: mediterraneibacter gnavus, 2 µM
measure: Bacterial Biotransformation

COC(=O)Nc1nc2ccc(C(=O)c3ccccc3)cc2[nH]1 [MEBENDAZOLE]: Compound NOT metabolized
CC(C)C[C@H]1C(=O)N2CCC[C@H]2[C@]2(O)O[C@](NC(=O)[C@@H]3C=C4c5cccc6[nH]c(Br)c(c56)C[C@H]4N(C)C3)(C(C)C)C(=O)N12.CS(=O)(=O)O [BROMOCRIPTINE MESYLATE]: Compound metabolized
NC(CO)(CO)CO.O=C(c1ccccc1)c1ccc2n1CCC2C(=O)O (centres undefined) [KETOROLAC TROMETHAMINE]: Compound metabolized
CN1[C@@H]2CC[C@H]1C[C@@H](OC(=O)c1c[nH]c3ccccc13)C2 [TROPISETRON]: Compound NOT metabolized
